test system: NCI-H1299; experiment: Antiproliferative activity against human NCI-H1299 cells assessed as inhibition of cell growth incubated for 3 to 5 days by MTT assay; format: functional, cell-based
Listed compounds paired with reported pIC50
Please treat pIC50 as minus the base-10 logarithm of the molar concentration.

CC(=O)c1c(C)c2cnc(Nc3ccc(N4CCN(CC(=O)NCCSSCCN(CC(=O)NCCNc5cccc6c5C(=O)N(C5CCC(=O)NC5=O)C6=O)C(=O)CCCCCCCCCCC(=O)N5CCC(c6cc(OC(C)C)c(Nc7ncc(Cl)c(Nc8ccccc8S(=O)(=O)C(C)C)n7)cc6C)CC5)CC4)cn3)nc2n(C2CCCC2)c1=O (stereo not drawn)    4.44

# input I am curious: what pIC50 value has been reported for CC(=O)c1c(C)c2cnc(Nc3ccc(N4CCNCC4)cn3)nc2n(C2CCCC2)c1=O [PALBOCICLIB] ?
# output 6.51
